Each recorded value in this set is attributed to the supplement of paper PMC11451515.

Listing: cell viability of selected compounds
- System: NOMO1
- TEST: cell viability relative to DMSO control; higher = less cytotoxic
- EXPERIMENTAL_SETUP: RPMI 5 mM glucose + 10% dialyzed FBS; 48 h; 1.71 µM
PARAMETER_MEASURED: cell viability (%)

COMPOUND	ASSAY_RESULT
CC[C@H](C)C(=O)O[C@H]1C[C@H](O)\C=C2\C=C/[C@H](C)[C@H](CC[C@@H](O)C[C@@H](O)CC(O)=O)[C@@H]12	101
COC(=O)C1C2CC3c4[nH]c5cc(OC)ccc5c4CCN3CC2CC(OC(=O)c2cc(OC)c(OC)c(OC)c2)C1OC (centres undefined)	105
CN1\N=C(N)/C2=C[N]([C@@H]3O[C@H](CO[P](O)(O)=O)[C@@H](O)[C@H]3O)C4=C2C1=NC=N4	61.5
CC/1=C(/C(CC(=O)N1)C2=CC=C(C=C2)C(F)(F)F)C(=O)NC3=C(F)C=C4[NH]N=CC4=C3 (centres undefined)	95.3
